# Tgt: SARS-COV-2 RBD extracellular domain expressed with a C-terminal myc-myc-hexahistidine tag (SARS-CoV-2)
# Test method notes: SPR (Biacore), mAb captured by anti-human Fc, RBD-mmH in solution, 25 C
Property measured: log10 of kon (log10 of the value in M⁻¹ s⁻¹)
Log scale reminder: kon in M⁻¹ s⁻¹, then log10 taken.

Examples with answers:
mAb14294 (antibody, V domains shown) VH: EVQLVESGGGLVQPGGSLRLSCAASGFTFSNHWMDWVRQAPGKGLVWVSRINSDGSSTDYADSVRGRFTMSRDNAKNTLYLQMSSLRAEDTAVYYCAREGMIFGAVIIPGWYFDLWGRGALVTVSS VL: EIVLTQSPGTLSLSPGERATLSCRASQSVSSSQLAWYQQKPGQAPRLLIYGASSRATGIPDRFSGSGSGTDFTLTISRLEPEDFAVYYCQQYDSFGQGTKLEIKR	5.78
mAb14258 (antibody, V domains shown) VH: QLQLQESGPGLVKPSETLSLICTGSGDSISSSHYYWGWIRQPPGKGLEWIGSTYFSGSTYYNPSLKSRVSISVDTSKNQVSLKLISVTAADTAVYYCAREMGATLGDYWGPGTLVTVSS VL: QSVLTQPPSASGTPGQRVTISCSGSSSNIGNNYVYWYQQFPGTTPRLLIYRNNERPSGVPDRFSGSKSGTSASLVISGLRSEDEADYYCAAWDDSLSAHYVFGTGTKVTVLG	6.28
mAb14257 (antibody, V domains shown) VH: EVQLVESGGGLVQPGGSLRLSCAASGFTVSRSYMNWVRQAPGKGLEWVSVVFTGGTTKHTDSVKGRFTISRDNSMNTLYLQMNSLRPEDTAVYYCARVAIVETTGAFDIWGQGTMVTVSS VL: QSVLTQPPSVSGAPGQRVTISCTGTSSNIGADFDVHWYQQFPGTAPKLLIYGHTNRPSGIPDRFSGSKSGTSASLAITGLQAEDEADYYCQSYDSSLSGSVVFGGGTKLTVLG	6.53
mAb15170 (antibody, V domains shown) VH: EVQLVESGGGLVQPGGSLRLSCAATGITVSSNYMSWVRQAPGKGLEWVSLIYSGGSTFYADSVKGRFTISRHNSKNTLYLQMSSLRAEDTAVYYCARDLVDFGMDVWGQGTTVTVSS VL: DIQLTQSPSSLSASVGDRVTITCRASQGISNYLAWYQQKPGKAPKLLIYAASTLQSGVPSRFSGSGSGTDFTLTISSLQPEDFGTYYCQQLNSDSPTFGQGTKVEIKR	5.30

Query: Sample mAb15158 (antibody, V domains shown) VH: EVQLVESGGGLVQPGGSLRLSCAASGFSFSSNWMSWVRQAPGKGLEWVGNINQDGSEKYYVDSVEGRFTISRDNAKKSLYLQMNSLRAEDTAVYYCARDLGVLWFGDFVDWGQGALVTVSS VL: DIQMTQSPSSLSASVGDRVTITCRASQAISNSLAWYQQKPGKAPKLLLYAASTLESGVPSRFSGSGSGTDYTLTISSLQPEDFATYYCLQYYGSPRTFGQGTKVEIKR — what was its log10 of kon?
Reply: 5.02

Reference source for all entries: patent US20260069689A1
